The values you see were collected from ChEMBL document CHEMBL3351609.

# Target Entity: Eukaryotic translation initiation factor 2-alpha kinase 3 (Homo sapiens, UniProt Q9NZJ5)
# Procedure Details: Inhibition of PERK (unknown origin) expressed in HEK293 cells assessed as inhibition of phosphorylation of GFP-eIF2 alpha by cell-based TR-FRET assay
IC50 values by entry

Consider the following illustrative entries.
COc1cc2ncnc(Nc3ccc4c(c3)CCN4C(=O)Cc3c(C)[nH]c4cc(F)ccc34)c2cc1OC ... 0.0251 µM
COc1cc2ncnc(Nc3ccc4c(c3)CCN4C(=O)Cn3ccc4ccccc43)c2cc1OC ... 0.316 µM

"COc1cc2ncnc(Nc3ccc4c(c3)CCN4C(=O)Cc3c[nH]c4ccccc34)c2cc1OC" has a reported IC50 of 0.501 µM

Notebook: "COc1cc2ncnc(Nc3ccc4c(c3)CCN4C(=O)Cc3cc(F)ccc3F)c2cc1OC" , IC50 read as 0.0501 µM

// field: IC50; key: "COc1cc2ncnc(Nc3ccc4c(c3)CCN4C(=O)Cc3coc4ccccc34)c2cc1OC" ; value = > 31.6 µM

###

# Target Entity: Eukaryotic translation initiation factor 2-alpha kinase 3 (Homo sapiens)
# Sequence (Q9NZJ5 whole entry): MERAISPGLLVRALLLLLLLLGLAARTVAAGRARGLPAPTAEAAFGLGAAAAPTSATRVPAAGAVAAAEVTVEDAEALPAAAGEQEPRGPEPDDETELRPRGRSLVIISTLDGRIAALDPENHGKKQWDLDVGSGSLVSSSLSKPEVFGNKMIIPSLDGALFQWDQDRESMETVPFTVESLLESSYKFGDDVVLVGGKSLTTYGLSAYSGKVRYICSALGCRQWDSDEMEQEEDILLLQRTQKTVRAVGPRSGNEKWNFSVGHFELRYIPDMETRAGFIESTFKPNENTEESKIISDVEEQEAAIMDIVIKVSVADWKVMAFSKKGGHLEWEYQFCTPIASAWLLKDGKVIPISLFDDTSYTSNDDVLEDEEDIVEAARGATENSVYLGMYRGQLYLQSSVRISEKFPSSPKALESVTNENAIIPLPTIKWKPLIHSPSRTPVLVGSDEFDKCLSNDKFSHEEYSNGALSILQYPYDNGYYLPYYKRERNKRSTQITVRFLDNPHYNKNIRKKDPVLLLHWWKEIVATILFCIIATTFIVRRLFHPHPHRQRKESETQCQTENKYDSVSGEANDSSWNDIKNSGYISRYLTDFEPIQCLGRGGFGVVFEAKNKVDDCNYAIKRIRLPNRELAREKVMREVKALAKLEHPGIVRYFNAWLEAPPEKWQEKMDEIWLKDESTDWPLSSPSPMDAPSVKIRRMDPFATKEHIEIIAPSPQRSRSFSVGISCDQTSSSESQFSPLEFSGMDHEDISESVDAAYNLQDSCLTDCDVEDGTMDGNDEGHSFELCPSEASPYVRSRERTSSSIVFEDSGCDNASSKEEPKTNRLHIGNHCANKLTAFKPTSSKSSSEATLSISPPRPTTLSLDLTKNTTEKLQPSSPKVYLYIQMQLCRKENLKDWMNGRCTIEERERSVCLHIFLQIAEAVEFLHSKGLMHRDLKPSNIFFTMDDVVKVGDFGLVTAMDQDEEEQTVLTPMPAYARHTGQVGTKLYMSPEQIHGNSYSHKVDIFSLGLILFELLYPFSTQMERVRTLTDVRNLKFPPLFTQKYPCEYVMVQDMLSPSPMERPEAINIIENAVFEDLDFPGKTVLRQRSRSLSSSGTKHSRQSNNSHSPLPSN
# Procedure Details: Inhibition of recombinant GST-tagged PERK (unknown origin) by LanthaScreen assay
Property Name: pIC50
pIC50 is a log-scale quantity: -log10 of the concentration expressed in molar.

Illustrative cases are given below, each with its answer.
COc1cc2ncnc(Nc3ccc4c(c3)CCN4C(=O)Cc3c(C)[nH]c4cc(F)ccc34)c2cc1OC ... 9.20
COc1cc2ncnc(Nc3ccc4c(c3)CCN4C(=O)Cc3c[nH]c4ccccc34)c2cc1OC ... 8.30

Please examine the following record next.
pIC50 reading for "COc1cc2ncnc(Nc3ccc4c(c3)CCN4C(=O)Cc3cc(F)ccc3F)c2cc1OC" : 9.40
